Consider the following sequences and their measured protein stability index readings.
experiment: protein stability index of a GFP-peptide fusion (GPS, HEK-293T) (PSI 1-6); higher = more stable; conditions: treatment: MLN4924 1 uM, 8 h; c terminus: a fixed tail appended;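 also: 24-mer peptide tiles fused after GFP, lentivirally expressed, FACS-sorted into six equal bins by GFP/DsRed ratio, decoded by Illumina sequencing, PSI is the read-weighted mean bin number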
Observed Property: protein stability index

[[record]]
sequence_text = "YLRYVRRLDFFEKPDYEYLRTLFT [CSNK1G1]"
observed_property = "protein stability index"
reported_result = 2.24

[[record]]
sequence_text = "ASRLLTTALTSFCAKYTYPVCSAL [FANCE]"
observed_property = "protein stability index"
reported_result = 3.34

[[record]]
sequence_text = "SLAEVRVGYQSQNISCFFRLVDRD [MYORG]"
observed_property = "protein stability index"
reported_result = 2.45

[[record]]
sequence_text = "SGKELKIDIIPNPQERTLTLVDTG [HSP90AB1]"
observed_property = "protein stability index"
reported_result = 3.58

[[record]]
sequence_text = "VLPPIHAYGNRTECRNPQELESIR [FEM1B]"
observed_property = "protein stability index"
reported_result = 4

[[record]]
sequence_text = "GDKLKFLSMLLTLKCEMNQMSGEP [ACSBG2]"
observed_property = "protein stability index"
reported_result = 2.56

[[record]]
sequence_text = "EMKEFSSQLAGQVNVEMDAAPGVD [KRT15]"
observed_property = "protein stability index"
reported_result = 5.07

[[record]]
sequence_text = "EEVAKAVLEQEETAAASRERQEEQ [EPB41L3]"
observed_property = "protein stability index"
reported_result = 5.63

[[record]]
sequence_text = "YFFKRPYPFVLFYSKFHGLEMCVD [KMT2E]"
observed_property = "protein stability index"
reported_result = 3.19

[[record]]
sequence_text = "SSEDYRQLELVILQSEPHRAGVQW [KCNK9]"
observed_property = "protein stability index"
reported_result = 2.38

[[record]]
sequence_text = "LLLCGTISLRVYRKVLQAVHRGDG [RTN2]"
observed_property = "protein stability index"
reported_result = 2.36

[[record]]
sequence_text = "ALPKATILDLSCNKLTTLPSDFCG [LRRC59]"
observed_property = "protein stability index"
reported_result = 3.02

[[record]]
sequence_text = "LVLNSQQSDTLEQREEHELVHVME [RAD54B]"
observed_property = "protein stability index"
reported_result = 4.36

[[record]]
sequence_text = "KRKEEEALKDSLRPKLSEEQQRII [VDR]"
observed_property = "protein stability index"
reported_result = 5.06

[[record]]
sequence_text = "HHAQTSKTERINALELLGATFVDK [FEM1C]"
observed_property = "protein stability index"
reported_result = 3.86

[[record]]
sequence_text = "LGHSPVLRNITNSQAPDGRRKSEA [CDC25B]"
observed_property = "protein stability index"
reported_result = 4.22

[[record]]
sequence_text = "FLQRCLESPFSRKLDLWSFLDIPR [NET1]"
observed_property = "protein stability index"
reported_result = 2.1

[[record]]
sequence_text = "FVSRYKLMRHMATHSPQKSHQCAH [PLAGL1]"
observed_property = "protein stability index"
reported_result = 2.55

[[record]]
sequence_text = "VVGALPAEHQFSFMEKRNQWLVSQ [TRAF3IP2]"
observed_property = "protein stability index"
reported_result = 2.65

[[record]]
sequence_text = "LTWSELFVLNAAQCSMPLHVAPLL [NR2F2]"
observed_property = "protein stability index"
reported_result = 3.16

[[record]]
sequence_text = "LYFATLRNRPKSTVNTHYFSIDEE [CDC14A]"
observed_property = "protein stability index"
reported_result = 2.15

[[record]]
sequence_text = "PYTPPATSHRRVTDVRGLEEFLSA [PLEKHN1]"
observed_property = "protein stability index"
reported_result = 3.91

[[record]]
sequence_text = "EEDNDDAKILPSPVQGSSEDNLSL [DRICH1]"
observed_property = "protein stability index"
reported_result = 5.55

[[record]]
sequence_text = "HVGDFARDLAARWKKLVLVDRNTR [ELOA2]"
observed_property = "protein stability index"
reported_result = 2.86

[[record]]
sequence_text = "GSELKDSIPVTELSASGPFESHDL [POMP]"
observed_property = "protein stability index"
reported_result = 5.18

[[record]]
sequence_text = "WIGNEWLPSLGLPQYRSYFMECLV [PPFIA4]"
observed_property = "protein stability index"
reported_result = 2.15

[[record]]
sequence_text = "GTVFQELNKLYPTHACREYLKNLP [TPH1]"
observed_property = "protein stability index"
reported_result = 2.38

[[record]]
sequence_text = "DAWKRPDALPGQSKRLAVPCKLEK [TLE6]"
observed_property = "protein stability index"
reported_result = 4.28

[[record]]
sequence_text = "QAAKQIKDGVTMAPAFRLSLKAKV [FSD1]"
observed_property = "protein stability index"
reported_result = 3.02

[[record]]
sequence_text = "YVDIHTGLSGSGVAFVCAFSEALA [PYCR3]"
observed_property = "protein stability index"
reported_result = 2.4

[[record]]
sequence_text = "TFEVPEENTAETITRVLYEVFIEW [ZBED1]"
observed_property = "protein stability index"
reported_result = 2

[[record]]
sequence_text = "FDIRILMAKSVKYTVNFLEAKEGD [CARM1]"
observed_property = "protein stability index"
reported_result = 2.33

[[record]]
sequence_text = "LRNKLRELCVKLMFLHPVDYGRKA [SMG5]"
observed_property = "protein stability index"
reported_result = 3.03

[[record]]
sequence_text = "LFVIRGQPADVFPRLFKEWNITKL [CRY1]"
observed_property = "protein stability index"
reported_result = 2.24

[[record]]
sequence_text = "TIYGKTFRVVDCDQFTQVFLESQG [EFHC1]"
observed_property = "protein stability index"
reported_result = 2.29

[[record]]
sequence_text = "NLRKQLETLSGDRVRLDSELRNVQ [KRT71]"
observed_property = "protein stability index"
reported_result = 3.74

[[record]]
sequence_text = "QEKLQVLMAEGLLPAVKVFLDWLR [SMG5]"
observed_property = "protein stability index"
reported_result = 2.57

[[record]]
sequence_text = "DARDGQSRTVRQFQFTDWPEQGVP [PTPRD]"
observed_property = "protein stability index"
reported_result = 4.32

[[record]]
sequence_text = "LALGPILRLYKHNSQALLLHSSIL [MFSD9]"
observed_property = "protein stability index"
reported_result = 2.59

[[record]]
sequence_text = "YFTNRKVNSVCWASLNHLDSHILL [DCAF4]"
observed_property = "protein stability index"
reported_result = 2.42

[[record]]
sequence_text = "NHHSPGGSSDASGSYSSTMNGHQN [ESRRG]"
observed_property = "protein stability index"
reported_result = 5.05

[[record]]
sequence_text = "NEYRKLHPVLHKEEKQHLERLNKE [TRIM43]"
observed_property = "protein stability index"
reported_result = 4.87

[[record]]
sequence_text = "ESSPSHDRSRTVSASSTGDLPKAK [SRPK2]"
observed_property = "protein stability index"
reported_result = 5.22

[[record]]
sequence_text = "EIDTQGRHLAHSMLQRAIAYQHSG [C10orf62]"
observed_property = "protein stability index"
reported_result = 3.15

[[record]]
sequence_text = "RLRALGERHTMDLTVEGFQSWMWR [TMEM120A]"
observed_property = "protein stability index"
reported_result = 2.58

[[record]]
sequence_text = "LAPPPLPLPAAAVVHVSFPEVTSA [ZBTB22]"
observed_property = "protein stability index"
reported_result = 3.73

[[record]]
sequence_text = "EKASWLGEQPQFWSKTQVLDWISY [ELF3]"
observed_property = "protein stability index"
reported_result = 2.16

[[record]]
sequence_text = "YQRWIYRVDPTRVNEFGMSGEDPT [CLPTM1]"
observed_property = "protein stability index"
reported_result = 2.72

[[record]]
sequence_text = "MDHIRIFQEQVEKLKALHVDSAEY [NR2F2]"
observed_property = "protein stability index"
reported_result = 3.2

[[record]]
sequence_text = "DALISVSYTIITPLFNPMIYSLRN [OR10K2]"
observed_property = "protein stability index"
reported_result = 3.35

[[record]]
sequence_text = "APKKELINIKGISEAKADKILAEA [RAD51]"
observed_property = "protein stability index"
reported_result = 4.49

[[record]]
sequence_text = "SQPPKKKPKTTNIELQGVPNDEVH [RBBP5]"
observed_property = "protein stability index"
reported_result = 5.28

[[record]]
sequence_text = "HQTLKCSALATQYMHCVNHAKQSM [CHCHD3]"
observed_property = "protein stability index"
reported_result = 2.29

